From: patent US5100874A

Biological target: tadpole-derived collagenase (Aquarana catesbeiana)
Construct: collagenase from tadpoles; from tissue
Sequence (Q11133 89-384): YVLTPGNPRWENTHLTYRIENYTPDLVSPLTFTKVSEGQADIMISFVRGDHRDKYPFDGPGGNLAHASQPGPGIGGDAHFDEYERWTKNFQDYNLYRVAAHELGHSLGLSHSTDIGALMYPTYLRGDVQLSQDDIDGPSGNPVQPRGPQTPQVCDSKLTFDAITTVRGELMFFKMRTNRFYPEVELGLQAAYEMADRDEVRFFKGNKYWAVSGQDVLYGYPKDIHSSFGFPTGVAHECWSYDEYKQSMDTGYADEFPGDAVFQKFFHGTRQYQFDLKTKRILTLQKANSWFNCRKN
Assay: biochemical
Conditions: read-out: IC50 Tadpole collagenase
Result Type: IC50 (µM)
API: value field is a number in µM; no unit string.

[in] Please look at this molecule and report its IC50: CC(C)C[C@@H](NC(=O)[C@@H](CC(C)C)NC(=O)[C@@H]1CCCN1C(=O)CN1C(=O)c2ccccc2C1=O)C(=O)NO
[out] 3.1

* * *

target: tadpole-derived collagenase (Aquarana catesbeiana); construct: collagenase from tadpoles; from tissue; assay: biochemical
Square brackets hold non-standard residues; d marks the D form. Peptide text beside a SMILES is read from it. * marks the point of attachment. Benzoyl(4-OH) = O=C(c1ccc(O)cc1)*; 4Abz = Nc1ccc(C(=O)O)cc1; Boc = CC(C)(C)OC(=O)*; Bz = O=C(c1ccccc1)*; NHOH = ON*
Result Type: pIC50
In textbook form, pIC50 equals minus log to base ten of the concentration in mol/L.

Guide cases for pIC50, answers given:
>>> value_reported("CC(C)C[C@@H](NC(=O)[C@@H]1CCCN1C(=O)CNC(=O)c1ccc(O)cc1)C(=O)N[C@H](C)C(=O)NO [Example 7] ({Benzoyl(4-OH)}-GP[dL][dA]-{NHOH})")
5.98
>>> value_reported("CC(C)C[C@H](NC(=O)[C@@H]1CCCN1C(=O)CNC(=O)c1ccc(N)cc1)C(=O)N[C@@H](C)C(=O)NO [Example 41, AcOH.ABAGlyProLeuAlaNHOH] (H-[4Abz]GPLA-{NHOH})")
5.40
>>> value_reported("CC(C)C[C@H](NC(=O)[C@@H]1CCCN1C(=O)CNC(=O)c1ccccc1)C(=O)N[C@@H](C)C(=O)NO [Example 34, BzGlyProLeuAlaNHOH] (Bz-GPLA-{NHOH})")
5.11
>>> value_reported("CC(C)C[C@@H](NC(=O)[C@@H]1CCCN1C(=O)CNC(=O)c1ccccc1)C(=O)N[C@H](C)C(=O)NO [Example 35, BzGlyPro-D-Leu-D-AlaNHOH] (Bz-GP[dL][dA]-{NHOH})")
5.51

[in] Please look at this molecule and report its pIC50: CC(C)C[C@H](NC(=O)[C@@H]1CCCN1C(=O)CNC(=O)OC(C)(C)C)C(=O)N[C@H](C(=O)NO)C(C)C [Example 18, BocGlyProLeuValNHOH] (Boc-GPLV-{NHOH})
[out] 5.01

* * *

Biological target: human fibroblast collagenase (Homo sapiens)
Construct: collagenase derived from human fibroblasts; from tissue; host or cells: human fibroblasts
Sequence (P03956 100-469): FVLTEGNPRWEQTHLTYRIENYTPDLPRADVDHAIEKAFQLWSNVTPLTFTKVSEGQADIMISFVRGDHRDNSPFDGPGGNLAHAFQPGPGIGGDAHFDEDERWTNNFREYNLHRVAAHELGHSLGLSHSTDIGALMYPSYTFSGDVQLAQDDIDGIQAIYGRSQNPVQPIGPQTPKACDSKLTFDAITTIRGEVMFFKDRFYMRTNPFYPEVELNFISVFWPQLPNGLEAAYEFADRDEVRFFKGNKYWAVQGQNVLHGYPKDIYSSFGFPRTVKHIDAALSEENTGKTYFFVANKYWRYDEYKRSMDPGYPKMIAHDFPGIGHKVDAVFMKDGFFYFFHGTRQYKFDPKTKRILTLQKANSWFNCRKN
Assay: Inhibitory activity against human fibroblast collagenase (method of Nagai, FITC-derivatized bovine type I collagen)
Assay type: biochemical
Details: read-out: IC50 Human fibroblast collagenase
Square brackets hold non-standard residues; d marks the D form. Peptide text beside a SMILES is read from it. * marks the point of attachment. Benzoyl(4-OH) = O=C(c1ccc(O)cc1)*; 4Abz = Nc1ccc(C(=O)O)cc1; Boc = CC(C)(C)OC(=O)*; NHOH = ON*
In this section we review reported pIC50 values for a set of molecules.
In textbook form, pIC50 equals minus log to base ten of the concentration in mol/L.

[in] Please look at this molecule and report its pIC50: CC(C)C[C@@H](NC(=O)[C@@H]1CCCN1C(=O)CNC(=O)c1ccc(N)cc1)C(=O)N[C@H](C)C(=O)NO [Example 6] (H-[4Abz]GP[dL][dA]-{NHOH}; N-terminus and C-terminus assumed)
[out] 5.89

[in] Please look at this molecule and report its pIC50: CC(C)C[C@H](NC(=O)[C@@H]1CCCN1C(=O)CNC(=O)OC(C)(C)C)C(=O)N[C@H](C(=O)NO)C(C)C [Example 18, BocGlyProLeuValNHOH] (Boc-GPLV-{NHOH})
[out] 5.51

[in] Please look at this molecule and report its pIC50: CC(C)C[C@H](NC(=O)[C@@H]1CCCN1C(=O)CNC(=O)c1ccc(N)cc1)C(=O)N[C@@H](C)C(=O)NO [Example 41, AcOH.ABAGlyProLeuAlaNHOH] (H-[4Abz]GPLA-{NHOH})
[out] 5.43

[in] Please look at this molecule and report its pIC50: CC(C)C[C@@H](NC(=O)[C@@H]1CCCN1C(=O)CNC(=O)c1ccc(O)cc1)C(=O)N[C@H](C)C(=O)NO [Example 7] ({Benzoyl(4-OH)}-GP[dL][dA]-{NHOH})
[out] 5.93

[in] Please look at this molecule and report its pIC50: CC(C)C[C@@H](NC(=O)[C@@H](CC(C)C)NC(=O)[C@@H]1CCCN1C(=O)CN1C(=O)c2ccccc2C1=O)C(=O)NO [Example 40, PTHGlyPro-D-Leu-D-LeuNHOH]
[out] 5.44

* * *

biological target: thermolysin (Bacillus thermoproteolyticus, UniProt P00800); assay: Inhibitory activity against thermolysin (method of Laskowski, thermally denatured casein substrate); assay type: biochemical; conditions: at 4.0 × 10^-3 M
Sequence (P00800 233-548, species assumed): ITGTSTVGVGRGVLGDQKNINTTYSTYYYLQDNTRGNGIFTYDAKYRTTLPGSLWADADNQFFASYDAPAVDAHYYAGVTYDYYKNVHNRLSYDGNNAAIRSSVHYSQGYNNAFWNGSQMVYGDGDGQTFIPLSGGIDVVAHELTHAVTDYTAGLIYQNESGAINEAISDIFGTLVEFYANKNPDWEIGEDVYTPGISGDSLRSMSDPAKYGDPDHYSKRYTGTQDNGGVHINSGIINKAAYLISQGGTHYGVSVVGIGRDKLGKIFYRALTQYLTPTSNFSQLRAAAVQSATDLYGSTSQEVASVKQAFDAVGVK
Square brackets hold non-standard residues; d marks the D form. Peptide text beside a SMILES is read from it. * marks the point of attachment. Benzoyl(4-OH) = O=C(c1ccc(O)cc1)*; 4Abz = Nc1ccc(C(=O)O)cc1; Bz = O=C(c1ccccc1)*; NHOH = ON*
Result Type: inhibition at 4000 µM (%)
API: value field is a number in %; no unit string.

>>> value_reported("CC(C)C[C@@H](NC(=O)[C@@H]1CCCN1C(=O)CNC(=O)c1ccccc1)C(=O)N[C@H](C)C(=O)NO [Example 35, BzGlyPro-D-Leu-D-AlaNHOH] (Bz-GP[dL][dA]-{NHOH})")
38
>>> value_reported("CC(C)C[C@H](NC(=O)[C@@H]1CCCN1C(=O)CNC(=O)c1ccccc1)C(=O)N[C@@H](C)C(=O)NO [Example 34, BzGlyProLeuAlaNHOH] (Bz-GPLA-{NHOH})")
35
>>> value_reported("CC(C)C[C@@H](NC(=O)[C@@H]1CCCN1C(=O)CNC(=O)c1ccc(N)cc1)C(=O)N[C@H](C)C(=O)NO [Example 6] (H-[4Abz]GP[dL][dA]-{NHOH}; N-terminus and C-terminus assumed)")
26.8
>>> value_reported("CC(C)C[C@@H](NC(=O)[C@@H]1CCCN1C(=O)CNC(=O)c1ccc(O)cc1)C(=O)N[C@H](C)C(=O)NO [Example 7] ({Benzoyl(4-OH)}-GP[dL][dA]-{NHOH})")
60.4

Let us examine a further case.
[in] Please look at this compound and report its inhibition at 4000 µM: CC(C)C[C@@H](NC(=O)[C@@H](CC(C)C)NC(=O)[C@@H]1CCCN1C(=O)CN1C(=O)c2ccccc2C1=O)C(=O)NO [Example 40, PTHGlyPro-D-Leu-D-LeuNHOH]
[out] 32.2

* * *

target: human fibroblast collagenase (Homo sapiens); construct: collagenase derived from human fibroblasts; from tissue; host or cells: human fibroblasts; experiment: Inhibitory activity against human fibroblast collagenase (method of Nagai, FITC-derivatized bovine type I collagen); type: biochemical
Square brackets hold non-standard residues; d marks the D form. Peptide text beside a SMILES is read from it. * marks the point of attachment. Bz = O=C(c1ccccc1)*; NHOH = ON*
In this section we review reported pIC50 values for a set of molecules.
In textbook form, pIC50 equals minus log to base ten of the concentration in mol/L.

>>> value_reported("CC(C)C[C@H](NC(=O)[C@@H]1CCCN1C(=O)CNC(=O)c1ccccc1)C(=O)N[C@@H](C)C(=O)NO [Example 34, BzGlyProLeuAlaNHOH] (Bz-GPLA-{NHOH})")
5.57

Let us examine a further case.
[in] Please look at this molecule and report its pIC50: CC(C)C[C@@H](NC(=O)[C@@H]1CCCN1C(=O)CNC(=O)c1ccccc1)C(=O)N[C@H](C)C(=O)NO [Example 35, BzGlyPro-D-Leu-D-AlaNHOH] (Bz-GP[dL][dA]-{NHOH})
[out] 5.19
